- target: Hypoxia-inducible factor 1-alpha (Homo sapiens)
- Sequence (Q16665 whole entry): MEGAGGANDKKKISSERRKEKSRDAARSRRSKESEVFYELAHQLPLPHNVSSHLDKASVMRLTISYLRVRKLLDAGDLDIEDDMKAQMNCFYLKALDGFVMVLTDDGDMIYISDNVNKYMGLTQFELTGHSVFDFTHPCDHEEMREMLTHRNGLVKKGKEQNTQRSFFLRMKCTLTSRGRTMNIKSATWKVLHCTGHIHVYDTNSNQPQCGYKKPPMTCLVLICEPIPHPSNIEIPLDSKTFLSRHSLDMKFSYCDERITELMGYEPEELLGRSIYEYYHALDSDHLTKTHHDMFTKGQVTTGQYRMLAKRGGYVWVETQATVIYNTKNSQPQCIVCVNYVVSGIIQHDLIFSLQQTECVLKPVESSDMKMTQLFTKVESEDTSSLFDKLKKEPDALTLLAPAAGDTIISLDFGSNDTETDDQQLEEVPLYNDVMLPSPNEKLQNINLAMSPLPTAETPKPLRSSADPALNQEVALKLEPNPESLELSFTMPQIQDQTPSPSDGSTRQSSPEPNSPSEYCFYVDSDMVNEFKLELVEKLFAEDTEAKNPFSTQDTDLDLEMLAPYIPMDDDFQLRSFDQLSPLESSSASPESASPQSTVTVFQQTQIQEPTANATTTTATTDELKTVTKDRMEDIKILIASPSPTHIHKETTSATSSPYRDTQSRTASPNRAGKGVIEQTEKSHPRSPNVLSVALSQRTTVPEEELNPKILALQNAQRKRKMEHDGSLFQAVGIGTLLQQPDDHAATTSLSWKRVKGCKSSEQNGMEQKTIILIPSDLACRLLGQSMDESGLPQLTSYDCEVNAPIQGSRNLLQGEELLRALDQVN
- test name: Inhibition of hypoxia-induced HIF1 alpha transcriptional activity in human HeLa cells transfected with luciferase reporter containing of HRE assessed as reduction in luciferase activity incubated for 1 hrs under normoxic condition followed by incubation under hypoxic condition for 24 hrs by luciferase reporter gene assay
property: IC50 (µM)

Answered examples (3):
[
  {
    "item smiles": "O=C(Cc1ccccc1)Nc1cnn(Cn2ccc(C(=O)Nc3ccc(C(F)(F)F)cc3)n2)c1",
    "numeric readout": 1.4
  },
  {
    "item smiles": "O=C(Nc1ccc(Br)cc1)c1ccn(Cn2cc([N+](=O)[O-])cn2)n1",
    "numeric readout": 18
  },
  {
    "item smiles": "O=C(Nc1ccc(F)cc1)c1ccn(Cn2cc([N+](=O)[O-])cn2)n1",
    "numeric readout": 28
  }
]

1 = O=C(Nc1ccc(Br)cc1)c1ccn(Cn2ccnc2)n1
2 = CC(=O)Nc1cnn(Cn2ccc(C(=O)Nc3ccc(C(F)(F)F)cc3)n2)c1
Ask: Could you please tell me which of these two has the higher IC50: 1 or 2 ? Answer by stating the label of the chosen item.
Result: 1
(1: 34 µM, 2: 5.5 µM)
